Would you mind telling me the reported pIC50 of each entry?
- methodDescription: Cytotoxicity against human BCP-ALL cells derived from patient 4 after 72 hrs by CellTiter-Glo luminescent cell viability assay
- Type: functional, cell-based
Remember, pIC50 is on a log scale: it is -log10 of the molar concentration.

Task: Please look up its pIC50: O=C(CCCCCCNC(=O)c1cnc(N(c2ccccc2)c2ccccc2)nc1)NO
Result: 6.27

Task: Now try C[C@H](NC(=O)[C@H](CC(=O)NCC(C)(C)C)NC(=O)c1ccc(C(=O)NO)cc1)C(=O)NCc1ccccc1 .
Result: 5.82

* * *

- testedOn: Proteasome Macropain subunit MB1 (Homo sapiens, UniProt P28074)
- Sequence (P28074 whole entry): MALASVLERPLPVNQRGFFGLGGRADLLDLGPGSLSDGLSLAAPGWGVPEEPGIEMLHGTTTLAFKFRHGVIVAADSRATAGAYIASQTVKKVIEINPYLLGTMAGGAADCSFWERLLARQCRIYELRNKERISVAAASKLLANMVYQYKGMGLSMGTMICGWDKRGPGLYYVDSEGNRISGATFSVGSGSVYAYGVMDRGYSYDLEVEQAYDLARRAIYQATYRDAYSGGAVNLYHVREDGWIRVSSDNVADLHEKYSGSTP
- methodDescription: Inhibition of chymotrypsin-like activity of 20S proteasome in human SEM cells using Suc-LLVY aminoluciferin as substrate after 2 hrs by proteasome-Glo assay
- Assay type: cell-based
pIC50: −log10 of the molar value.
Would you mind telling me the reported pIC50 of each entry?

Task: Please look up its pIC50: O=C(CCCCCCC(=O)Nc1ccccc1)NO
Result: < 4.60

Task: Now try O=C(CCCCCCNC(=O)c1cnc(N(c2ccccc2)c2ccccc2)nc1)NO .
Result: < 4.60

Task: Now try C[C@H](NC(=O)[C@H](CC(=O)NCC(C)(C)C)NC(=O)c1ccc(C(=O)NO)cc1)C(=O)NCc1ccccc1 .
Result: 6.40

* * *

- methodDescription: Cytotoxicity against human BCP-ALL cells derived from patient 2 after 72 hrs by CellTiter-Glo luminescent cell viability assay
- Format: functional, cell-based
measuredEndpoint: pIC50
Remember, pIC50 is on a log scale: it is -log10 of the molar concentration.

Task: Please look up its pIC50: C[C@H](NC(=O)[C@H](CC(=O)NCC(C)(C)C)NC(=O)c1ccc(C(=O)NO)cc1)C(=O)NCc1ccccc1
Result: 5.74

Task: Now try O=C(CCCCCCNC(=O)c1cnc(N(c2ccccc2)c2ccccc2)nc1)NO .
Result: 6.24

* * *

- testedOn: Histone deacetylase 1 (Homo sapiens, UniProt Q13547)
- Sequence (Q13547 whole entry): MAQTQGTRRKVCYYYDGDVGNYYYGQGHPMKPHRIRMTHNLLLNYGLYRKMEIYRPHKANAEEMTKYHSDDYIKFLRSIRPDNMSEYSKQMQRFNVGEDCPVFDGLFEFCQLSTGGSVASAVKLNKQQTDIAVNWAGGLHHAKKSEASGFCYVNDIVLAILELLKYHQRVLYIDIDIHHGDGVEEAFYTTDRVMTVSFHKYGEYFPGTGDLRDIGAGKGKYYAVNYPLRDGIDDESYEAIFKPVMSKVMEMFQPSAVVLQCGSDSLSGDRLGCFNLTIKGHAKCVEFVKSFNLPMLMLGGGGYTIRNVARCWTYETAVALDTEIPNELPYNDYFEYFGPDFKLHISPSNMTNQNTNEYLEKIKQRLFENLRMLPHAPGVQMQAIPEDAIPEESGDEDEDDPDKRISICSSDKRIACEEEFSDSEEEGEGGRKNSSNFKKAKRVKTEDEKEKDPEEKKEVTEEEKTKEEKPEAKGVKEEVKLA
- methodDescription: Inhibition of C-terminal FLAG-His-tagged full length recombinant human HDAC1 expressed in Sf21 insect cells using RHKK(Ac)AMC as substrate by fluorescence-based assay
measuredEndpoint: IC50 (µM)
Field: numeric (µM). Do not append units.

Task: Please look up its IC50: C[C@H](NC(=O)[C@H](CC(=O)NCC(C)(C)C)NC(=O)c1ccc(C(=O)NO)cc1)C(=O)NCc1ccccc1
Result: 6.9

* * *

- testedOn: Histone deacetylase 8 (Homo sapiens, UniProt Q9BY41)
- Sequence (Q9BY41 whole entry): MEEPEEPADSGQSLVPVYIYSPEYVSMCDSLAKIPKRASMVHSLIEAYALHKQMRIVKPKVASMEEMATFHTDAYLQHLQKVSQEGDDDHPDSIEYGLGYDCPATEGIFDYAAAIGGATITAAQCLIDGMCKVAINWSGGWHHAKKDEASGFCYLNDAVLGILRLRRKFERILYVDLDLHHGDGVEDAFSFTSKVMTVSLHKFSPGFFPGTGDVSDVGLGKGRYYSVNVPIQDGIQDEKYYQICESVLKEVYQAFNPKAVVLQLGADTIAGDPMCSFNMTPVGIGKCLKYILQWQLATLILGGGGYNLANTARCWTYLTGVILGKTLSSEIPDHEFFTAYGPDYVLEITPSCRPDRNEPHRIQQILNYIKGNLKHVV
- methodDescription: Inhibition of C-terminal His-tagged recombinant human HDAC8 expressed in baculovirus infected insect cells using RHK(Ac)K(Ac)AMC as substrate by fluorescence-based assay
measuredEndpoint: IC50

Task: Please look up its IC50: C[C@H](NC(=O)[C@H](CC(=O)NCC(C)(C)C)NC(=O)c1ccc(C(=O)NO)cc1)C(=O)NCc1ccccc1
Result: 0.53 µM
